System: TK-10
experiment_notes: NCI tumour cell line growth inhibition, 48 h
The source made the active and inactive calls. Cut-off read from the data, not from the text of the source: active = GI50 up to about 1.1 µM and inactive = higher. Residues, ends and D or L forms follow the SMILES beside them. *: point of attachment. Fmoc = O=C(OCC1c2ccccc2-c2ccccc21)*; Boc = CC(C)(C)OC(=O)*
property_label: GI50

- compound: "Cn1c(=O)c(-c2ccccc2)c(O)c2ccccc21"
  GI50: "> 100 µM (inactive)"

Suppose we examine the compound N=C(NC(=N)Nc1ccc(S(=O)(=O)Nc2cnc3ccccc3n2)cc1)Nc1ccc(Br)cc1 ; what GI50 value has been reported?
> 100 µM (inactive)

Suppose we examine the compound O=C(CC1(O)C(=O)Nc2ccc([N+](=O)[O-])cc21)c1ccc(Br)cc1 (stereo not drawn) ; what GI50 value has been reported?
32.7 µM (inactive)

Suppose we examine the compound FC1=C2C3CCC(C3)C2C1(F)F (stereo not drawn) ; what GI50 value has been reported?
> 100 µM (inactive)

Suppose we examine the compound CCOP(=O)(OCC)C(C(=O)OC)C(=O)C(=O)Nc1cccc([N+](=O)[O-])c1 (stereo not drawn) ; what GI50 value has been reported?
> 100 µM (inactive)

Suppose we examine the compound CC(C)(C)OC(=O)NCCCCC(NC(=O)C(Cc1c[nH]c2ccccc12)NC(=O)OCC1c2ccccc2-c2ccccc21)C(=O)N1CCCC1C(=O)NCC(N)=O (stereo not drawn) (Fmoc-WK(Boc)PG-NH2; configuration not given here) ; what GI50 value has been reported?
> 100 µM (inactive)

Suppose we examine the compound COc1ccc(/C=C\c2cc(OC)c(OC)c(OC)c2)c(O)c1O ; what GI50 value has been reported?
2.92 µM (inactive)

Suppose we examine the compound Cc1cc(Nc2ccc(S(=O)(=O)O)c3cc(S(=O)(=O)O)cc(S(=O)(=O)O)c23)c2ccccc2n1 ; what GI50 value has been reported?
> 100 µM (inactive)

Source listed as ChEMBL document CHEMBL1201862.
